Each recorded value in this set is attributed to ChEMBL document CHEMBL1124792.

Species: Mus musculus
Assay procedure: Oral efficacy against Streptococcus pyogenes A65 on Systemic Infections in Mice
Format: functional
Attribute measured: ED50 (mg/kg)
Number in mg/kg, nothing else.

O=C(O)c1cn(C2CC2)c2c(F)c(N3CCNCC3)c(F)cc2c1=O: 20.5
CC1CN(c2c(F)c(N)c3c(=O)c(C(=O)O)cn(C4CC4)c3c2F)CCN1 (configuration not stated): 6.54
O=C(O)c1cn(C2CC2)c2c(F)c(N3CCNCC3)c(F)c(F)c2c1=O: 25
CC1CN(c2c(F)c(F)c3c(=O)c(C(=O)O)cn(C4CC4)c3c2F)CCN1 (configuration not stated): 17.3
O=C(O)c1cn(C2CC2)c2cc(N3CCNCC3)c(F)cc2c1=O: 23.9

Give me measured ED50, please, for this compound: CN1CCN(c2c(F)cc3c(=O)c(C(=O)O)cn(C4CC4)c3c2F)CC1
8.84

Give me measured ED50, please, for this compound: C[C@@H]1CN(c2c(F)c(N)c3c(=O)c(C(=O)O)cn(C4CC4)c3c2F)C[C@H](C)N1C
5.64

---

The following molecules are shown together with reported MIC values.
Test system: Enterococcus faecalis
Assay procedure: In vitro antibacterial activity against Streptococcus faecalis 2473
Assay type: functional
Number in µg/mL, nothing else.

Below, each entry is followed by its recorded MIC result.
CN1CCN(c2c(F)cc3c(=O)c(C(=O)O)cn(C4CC4)c3c2F)CC1: 0.78
CN1CCN(c2c(F)c(N)c3c(=O)c(C(=O)O)cn(C4CC4)c3c2F)CC1: 0.78
Nc1c(F)c(N2CCNC(CF)C2)c(F)c2c1c(=O)c(C(=O)O)cn2C1CC1 (stereo not given): 0.39
C[C@@H]1CN(c2c(F)c(N)c3c(=O)c(C(=O)O)cn(C4CC4)c3c2F)C[C@H](C)N1: 0.78

As a next step, examine the molecule that follows.
Give me measured MIC, please, for this molecule: C[C@H]1CN(c2c(F)c(N)c3c(=O)c(C(=O)O)cn(C4CC4)c3c2F)CCN1
0.39

---

Test system: Enterococcus faecalis
Assay procedure: In vitro antibacterial activity against Streptococcus faecalis 2473
Format: functional
Attribute measured: MIC
Give your result as the value with the unit written after it.

Below, each entry is followed by its recorded MIC result.
CC1COc2c(N3CCN(C)CC3)c(F)cc3c(=O)c(C(=O)O)cn1c23 (stereo not drawn): 1.56 µg/mL
CC1CN(c2c(F)c(Cl)c3c(=O)c(C(=O)O)cn(C4CC4)c3c2F)CCN1 (stereo not drawn): 0.78 µg/mL

As a next step, examine the molecule that follows.
Give me measured MIC, please, for this molecule: CC1CN(c2c(F)c(O)c3c(=O)c(C(=O)O)cn(C4CC4)c3c2F)CCN1 (stereo not drawn)
1.56 µg/mL

---

System: Moraxella bovis
Assay procedure: In vitro antibacterial activity against glucose nonfermenter Moraxella bovis P-7101
Type: functional
Attribute measured: MIC (µg/mL)
Number in µg/mL, nothing else.

C[C@@H]1CN(c2c(F)c(N)c3c(=O)c(C(=O)O)cn(C4CC4)c3c2F)C[C@@H](C)N1 (relative stereo): 0.78
Nc1c(F)c(N2CCNCC2)c(F)c2c1c(=O)c(C(=O)O)cn2C1CC1: 0.39

As a next step, examine the compound that follows.
Give me measured MIC, please, for this compound: O=C(O)c1cn(C2CC2)c2c(F)c(N3CCNCC3)c(F)c(F)c2c1=O
3.13
